Molecular target: Gcr1 (UniProt P07261)
Sequence: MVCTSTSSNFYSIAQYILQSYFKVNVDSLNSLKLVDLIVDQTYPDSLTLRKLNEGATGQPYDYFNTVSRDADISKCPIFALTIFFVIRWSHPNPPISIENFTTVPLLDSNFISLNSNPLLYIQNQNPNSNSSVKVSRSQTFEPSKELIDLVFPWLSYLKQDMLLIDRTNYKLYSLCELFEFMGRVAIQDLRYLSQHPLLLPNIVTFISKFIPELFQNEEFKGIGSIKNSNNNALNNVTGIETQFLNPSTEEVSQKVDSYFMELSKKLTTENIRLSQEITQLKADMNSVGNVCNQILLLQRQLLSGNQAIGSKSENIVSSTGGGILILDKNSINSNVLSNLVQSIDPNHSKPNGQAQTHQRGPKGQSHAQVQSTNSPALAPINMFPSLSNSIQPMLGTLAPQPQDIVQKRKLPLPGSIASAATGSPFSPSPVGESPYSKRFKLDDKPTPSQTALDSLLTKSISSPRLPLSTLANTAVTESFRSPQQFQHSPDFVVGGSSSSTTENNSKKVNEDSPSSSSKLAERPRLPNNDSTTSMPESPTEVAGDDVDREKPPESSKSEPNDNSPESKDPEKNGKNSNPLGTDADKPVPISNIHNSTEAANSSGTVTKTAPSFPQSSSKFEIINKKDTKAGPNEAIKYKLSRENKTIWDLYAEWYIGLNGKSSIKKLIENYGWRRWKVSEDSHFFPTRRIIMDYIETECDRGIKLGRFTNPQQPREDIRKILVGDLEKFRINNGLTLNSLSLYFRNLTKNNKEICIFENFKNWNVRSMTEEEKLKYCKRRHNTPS
Assay: PBM E-score (8-mer binding enrichment) (E-score (-0.5 to 0.5)); higher = stronger / more preferred TF binding
Details: protein concentration: 100 nM; construct: GST-full length
In all, about 33,000 sequences were measured (“E-score (-0.5 to 0.5)”: median about -0.011, highest 2% from about 0.28 on). This excerpt belongs to a sample that is enriched for the highest values.
So basically: PBM E-score at 0.1 or higher? That is Fulfilled. Lower than 0.1? That is Not fulfilled.

ACCGCGGC | Fulfilled
ACGGTTGC | Not fulfilled

With those in mind, consider the next sequence.
*Q* Confirm if PBM E-score reported for the sequence ATTGCCGA is 0.1 or above.
*A* Not fulfilled
